Entries and their kon
Target: T1, human PD-L1 antigen (Beijing Sino Biological Inc, Catalog No. #10084-H08H-100) (human, UniProt Q9NZQ7 19-239)
T1 construct: Bought antigen; also called the antigen
T1 sequence (Q9NZQ7 19-239 limits assumed): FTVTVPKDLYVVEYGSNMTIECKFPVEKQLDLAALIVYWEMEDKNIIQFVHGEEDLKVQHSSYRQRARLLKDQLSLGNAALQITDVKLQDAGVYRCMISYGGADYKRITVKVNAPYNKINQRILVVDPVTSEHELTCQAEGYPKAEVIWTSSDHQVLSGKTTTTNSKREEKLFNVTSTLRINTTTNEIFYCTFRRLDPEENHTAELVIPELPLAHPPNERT
Test: BLI (ForteBIO Octet), antibody captured on sensor, human PD-L1 in solution
Give the value, in units of M⁻¹ s⁻¹, as a plain number.

Antibody I-HX-8 (antibody, human IgG4 S228P, kappa, V domains shown) VH: VQLVQSGAEVKKPGASVKVSCKASGYSFTTYWMHWVRQAPGQGLEWMGAIYPVHSETSYNQKFKGRVTITAVTSASTAYMELSSLRSEDTAVYYCTHWIEAFFHLMQHWGQGTLVTVSS VL: DIQMTQSPSSLSASVGDRVTITCRASQNIGQTLNWLQQKPGKAIKRLIYSTSSLDSGVPKRFSGSRSGSDYSLTISSLQPEDFATYYCLQYASSPFTFGQGTKLEIKR | 6990

// lookup kon for Antibody I-HX-5 (antibody, human IgG4 S228P, kappa, V domains shown) VH: VQLVQSGAEVKKPGASVKVSCKASGYTFTSYWMHWVRQAPGQGLEWMGAIYWAHSETSYNQKFKGRVTITAVTSASTAYMELSSLRSEDTAVYYCTHWLEVYFHGMDHWGQGTLVTVSS VL: DIQMTQSPSSLSASVGDRVTITCRASQNGINTLNWLQQKPGKAIKRLIYVTSSLDSGVPKRFSGSRSGSDYSLTISSLQPEDFATYYCLYYASYFFTFGQGTKLEIKR
7120

Try this binder next: Antibody I-HX-6 (antibody, human IgG4 S228P, kappa, V domains shown) VH: VQLVQSGAEVKKPGASVKVSCKASGYSFSSYWMHWVRQAPGQGLEWMGAIYPGQSETSYNQKFKGRVTITAVTSASTAYMELSSLRSEDTAVYYCTHWIDGYFHVMDHWGQGTLVTVSS VL: DIQMTQSPSSLSASVGDRVTITCRASQEIGQTLNWLQQKPGKAIKRLIYGTSSLDSGVPKRFSGSRSGSDYSLTISSLQPEDFATYYCLNYISSPFTFGQGTKLEIKR
8930

Try this binder next: Antibody I-HX-1 (antibody, human IgG4 S228P, kappa, V domains shown, expressed in HEK 293 or CHO cells) VH: VQLVQSGAEVKKPGASVKVSCKASGYSYYFYWMHWVRQAPGQGLEWMGAIYHINSDTSYNQKFKGRVTITAVTSASTAYMELSSLRSEDTAVYYCTRWGEGYYHAMNHWGQGTLVTVSS VL: DIQMTQSPSSLSASVGDRVTITCRASQDLGNTLNWLQQKPGKAIKRLIYASSSLDSGVPKRFSGSRSGSDYSLTISSLQPEDFATYYCLYYASTPFTFGQGTKLEIKR
8920

Try this binder next: Antibody I-HX-3 (antibody, human IgG4 S228P, kappa, V domains shown) VH: VQLVQSGAEVKKPGASVKVSCKASGYTYYFYWMHWVRQAPGQGLEWMGAIYHGNSETSYNQKFKGRVTITAVTSASTAYMELSSLRSEDTAVYYCTHWADAYFHGMNHWGQGTLVTVSS VL: DIQMTQSPSSLSASVGDRVTITCRASQNIANTLNWLQQKPGKAIKRLIYVSSSLDSGVPKRFSGSRSGSDYSLTISSLQPEDFATYYCLYYASYFFTFGQGTKLEIKR
7080

Try this binder next: Antibody I-HX-7 (antibody, human IgG4 S228P, kappa, V domains shown) VH: VQLVQSGAEVKKPGASVKVSCKASGYSFTTYWMHWVRQAPGQGLEWMGAIYWAHSETSYNQKFKGRVTITAVTSASTAYMELSSLRSEDTAVYYCTRWGDGYYHAMDHWGQGTLVTVSS VL: DIQMTQSPSSLSASVGDRVTITCRASQEIGQTLNWLQQKPGKAIKRLIYATSSLDSGVPKRFSGSRSGSDYSLTISSLQPEDFATYYCLYYASTPFTFGQGTKLEIKR
9090

Try this binder next: Antibody I-HX-2 (antibody, human IgG4 S228P, kappa, V domains shown, also called antibody I sample; candidate antibody I sample) VH: VQLVQSGAEVKKPGASVKVSCKASGYSFTSYWMHWVRQAPGQGLEWMGAIYPGNSDTSYNQKFKGRVTITAVTSASTAYMELSSLRSEDTAVYYCTRWGDGYYHAMDHWGQGTLVTVSS VL: DIQMTQSPSSLSASVGDRVTITCRASQDIGNTLNWLQQKPGKAIKRLIYATSSLDSGVPKRFSGSRSGSDYSLTISSLQPEDFATYYCLQYASSPFTFGQGTKLEIKR
9280

Try this binder next: Antibody I-HX-4 (antibody, human IgG4 S228P, kappa, V domains shown) VH: VQLVQSGAEVKKPGASVKVSCKASGYTYNFYWMHWVRQAPGQGLEWMGAIYHVQSDTSYNQKFKGRVTITAVTSASTAYMELSSLRSEDTAVYYCTHWLEVYFHGMDHWGQGTLVTVSS VL: DIQMTQSPSSLSASVGDRVTITCRASQEIGQTLNWLQQKPGKAIKRLIYVTSSLDSGVPKRFSGSRSGSDYSLTISSLQPEDFATYYCLYFASSPFTFGQGTKLEIKR
8100
